target.desc: BoNT/A light chain (recombinant) (Clostridium botulinum, UniProt P0DPI0 1-448)
Sequence (P0DPI0 1-448 limits assumed): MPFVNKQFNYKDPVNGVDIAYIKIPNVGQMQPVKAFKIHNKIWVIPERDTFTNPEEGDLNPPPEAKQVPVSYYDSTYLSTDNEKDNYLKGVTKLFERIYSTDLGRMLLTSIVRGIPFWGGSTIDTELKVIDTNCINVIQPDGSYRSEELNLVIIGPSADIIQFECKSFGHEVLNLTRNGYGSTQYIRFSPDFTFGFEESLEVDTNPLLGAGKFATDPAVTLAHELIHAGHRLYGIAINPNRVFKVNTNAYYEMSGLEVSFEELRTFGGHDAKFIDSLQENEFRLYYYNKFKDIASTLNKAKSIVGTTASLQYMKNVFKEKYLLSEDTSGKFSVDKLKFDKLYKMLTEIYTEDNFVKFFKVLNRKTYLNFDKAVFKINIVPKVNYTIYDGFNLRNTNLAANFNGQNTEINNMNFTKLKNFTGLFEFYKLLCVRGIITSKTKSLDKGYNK
test.summary: yeast scFv FACS
pKd: −log10 of the molar value.

binder	pKd
1H5 scFv (scFv, mouse) scFv: EVQLQQSGAELVRPGTSVKLSCKASDYTFTNYWTHWVKQRPGQGLEWIGVIDPSDSYTNYNQKFKGKATLTVDTSSSTAYMQLSSLTSEDSAVYYCARGYYDTMDYWGQGTTVTVSSVDLKSGGSTSGSGKPGSGEGSSGSARDIVLTQSPASLAVSLGQRATISCRASESVDYDGDSYMNWYQQKPGQPPKLLIYAASNLESGIPARFSGSGSGTDFTLNIHPVEEEDAATYYCLQSNEAPWTFGGGTKLEIK	7.97
10C9 scFv (scFv, mouse) scFv: QVQLQQSGAELVRPGTSVKLSCKASGYTFTSHWMHWVKQRPGQGLEWIGVIDPSDSYTNYNQKFKGKATLTVDTSSSTAYMQLSSLTSEDSAVYYCAIRRNYGMDYWGQGTSVTVSSVDLKSGGSTSGSGKPGSGEGSSGSARDIVMTQSPTSLAVSLGQRATISCKASQSVDYDGDSFMNWYQQKPGQPPKLLIYGASNLESGIPARFSGSGSRTDFTLTINPVEADDVATYYCQQSNEDPLTFGAGTKLELK	9.44
7C8 scFv (scFv, mouse) scFv: LQLKQSGPGLVKPSQSLSLTCSVTGYSITSGYYWYWIRQFPGNKLEWMGYISYDGSNNYNPSLKNRISITRDTSKNQFFLKLNSVTTEDTATYYCARNLGLWYFDVWGTGTPLTVSSVDLKSGGSTSGSGKPGSGEGSSGSAREIVLTQSPAILSASPGEKVTMTCRASSSVRYMHWYQQKPGSSPKPWIYATSNLASGVPARFSGSGSGTSYSLTISRVEAEDAATYYCQQWSGNAPTFGGGTKLEIK	9.03
